Catalogue of binders with associated binding signal (plate reader)
- target-under-test: T1, oligopeptide TAGIFATYPSGHLDM (SEQ ID NO: 105)
- T1 construct: Synthetic peptide, part of Loop C of AQP3
- T1 peptide: TAGIFATYPSGHLDM
- protocol-summary: ELISA on coated peptide
Please reply with the number alone, leaving off any unit.

BC-H9 (IgG) (antibody, V domains shown, also called anti AQP3 antibody BC-H9) VH: QSLEESGGRLVTPGTPLTLTCTVSGFSLYTYAMGWVRQAPGKGLEWIGIINNDGISSTWYASWVKGRFTISKTSTTMDLKMTSLTTEDTATYFCARGGTSGYDIWGPGTLVTVSL VL: AQGLTQTPSPVSAAVGGTVTINCQSGPSVYKNYLSWYQQKAGQPPKLLIYGASTLASGVPSRFKGSGSGTQFTLTISDVQCDDAATYYCAGGYRGSSDIFAFGGGTEVVVK = 3.92
SC-F8 (IgG) (antibody, V domains shown, also called anti AQP3 antibody SC-F8) VH: QTVKESGGRLVTPGGSLTLTCTVSRFSLSNYAMTWVRQAPGKGLEWIGIINNDGISSTWYASWVKGRFTISKTSTTMDLKMTSLTTEDTATYFCARGGTSGYDIWGPGTLVTVSL VL: AQVLTQTPSPVSAAVGGTVTINCQSSPSVYKNYLSWYQQKPGQPPKLLIYGASTLASGVPSRFKGSGSGTQFTLTISDVQCDDAATYYCAGGYRGSSDIFAFGGGTEVVVK = 4

Let us examine a further case.
Just so you know, measured binding signal (plate reader) for SC-B6 (IgG) (antibody, V domains shown, also called anti AQP3 antibody SC-B6) VH: QSVKESGGRLVTPGAPLTLTCTVSGFSLNNYAMTWVRQAPGKGLEWIGIINNDGISSTWYASWVKGRFIISKTSTTVDLKMTSLTTEDTATYFCARGGTSGYDIWGPGTLVTVSL VL: AQGPTQTPSPVSAAVGGTVTINCQSSPSVYKNYLSWYQQKPGQPPKLLIYGASTLASGVPSRFKGSRSGTQFTLTISDVQCDDAATYYCAGGYIGSRDIFSFGGGTEVVVK came out at 3.96
